Target: Sulfhydryl oxidase 1 (Homo sapiens) (UniProt O00391)
Sequence (O00391 whole entry, looked up): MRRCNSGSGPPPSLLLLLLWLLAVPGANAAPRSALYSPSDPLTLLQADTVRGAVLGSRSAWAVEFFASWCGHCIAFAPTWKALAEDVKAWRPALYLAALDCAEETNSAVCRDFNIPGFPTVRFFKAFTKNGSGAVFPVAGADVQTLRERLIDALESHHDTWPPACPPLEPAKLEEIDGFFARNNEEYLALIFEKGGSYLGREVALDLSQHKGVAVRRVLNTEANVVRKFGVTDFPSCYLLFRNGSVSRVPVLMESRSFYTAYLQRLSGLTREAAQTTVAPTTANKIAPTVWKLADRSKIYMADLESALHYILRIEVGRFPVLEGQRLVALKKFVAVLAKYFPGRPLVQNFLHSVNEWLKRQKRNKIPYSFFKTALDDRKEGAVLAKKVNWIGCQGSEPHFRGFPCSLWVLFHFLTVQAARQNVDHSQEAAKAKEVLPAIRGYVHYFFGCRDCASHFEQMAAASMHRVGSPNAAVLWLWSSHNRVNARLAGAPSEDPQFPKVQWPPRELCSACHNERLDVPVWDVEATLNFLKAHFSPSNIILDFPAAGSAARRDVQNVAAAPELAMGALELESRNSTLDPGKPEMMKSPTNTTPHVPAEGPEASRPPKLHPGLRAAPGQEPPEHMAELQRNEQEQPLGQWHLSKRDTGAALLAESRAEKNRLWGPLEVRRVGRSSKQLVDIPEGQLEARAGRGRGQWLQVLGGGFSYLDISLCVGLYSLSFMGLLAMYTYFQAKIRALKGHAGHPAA
Assay: QSOX1 binders by thermal stabilization, confirmation, QSOX1 inhibitor project, biophysical, protein thermal shift, single concentration (AID 1347422);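 note: dTm is compound Tm minus mean Tm of DMSO-only wells on that plate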
Details: recombinant hQSOX1 thermal shift, Sypro Orange, at 25 µM, stronger effect = higher value
Over roughly 1,000 compounds, “thermal shift dTm” has its median near 0.19; the highest 2% begin near 1.7. The entries come from a sample that favours the highest values as a whole. The source made the active and inactive calls.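 Rule for the calls: active = mean rise in melting temperature of at least 1 degC over same-plate control wells; inactive = below that, where a call was filed.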
Listed here: items and their measured thermal shift dTm.

Compound	thermal shift dTm
CC(=O)Nc1ccc(NC(=O)c2nnn(-c3cccc(Cl)c3)c2N)cc1	0.55 °C
O=C(Nc1ccc(Cl)cc1)Nc1cccc(C(=O)NCc2ccco2)c1	3.11 °C (active)
CSc1cccc(NC(=O)NCc2ccccn2)c1	0.18 °C
CCc1ccc2c(c1)C(OC(C)=O)C(C)(C)C(c1cccc(Br)c1)N2 (stereo unspecified)	0.44 °C
CCOc1ccc(NC(=S)N2CCC(C(N)=O)CC2)cc1	-0.13 °C (inactive)
COc1cccc(NC(=O)Nc2cccc3ccccc23)c1	0.01 °C
Cc1ncc(CNc2ccc(-c3nc4ccccc4[nH]3)cc2)cn1	0.14 °C
Cc1ccc(NC(=O)C(C)Sc2nc3c(c(=O)[nH]2)CCCC3)cc1Cl (stereo unspecified)	0.01 °C
O=C(Nc1nccs1)c1ccc(-c2cccc(Cl)c2Cl)o1	0.19 °C
O=C(NCCO)Nc1ccc(Cl)c(Cl)c1	0 °C (inactive)
Cc1ccc(Nc2nc(C3CC(CC(C)C)C(=O)O3)cs2)cc1 (stereo unspecified)	-0.09 °C (inactive)
CCOc1ccc(NC(=O)Nc2cc(OC)c(OC)c(OC)c2)cc1	1.64 °C (active)
O=C(C#Cc1ccccc1)Nc1ccc2c(c1)OCCO2	0.24 °C
O=C(Nc1cccc(OCC2CCCO2)c1)c1cccs1 (stereo unspecified)	0.09 °C
CC(=O)c1sc(Nc2ccc(Oc3ccccc3)cc2)nc1C	0.15 °C
CCc1ccc(NC(=O)Nc2ccc(Br)cn2)cc1	0.09 °C
Cc1[nH]nc(-c2ccc(O)c(O)c2O)c1Oc1ccc(F)cc1	-5.32 °C (inactive)
Cc1ccc(CN2CCC(C(=O)Nc3cccc(-c4ccn[nH]4)c3)CC2)o1	0.19 °C
Cc1ccc(-c2cc(-c3ccc(F)cc3)n[nH]2)c(O)c1	1.84 °C (active)
CCOC(=O)c1sc(NC(=O)CSc2nc(SC)ns2)nc1C	0.19 °C
Cc1ccc(NC(=O)NCc2nc(-c3ccccc3Cl)no2)cc1	0.2 °C
Cc1ccccc1COc1ccc(Br)cc1/C=C1/N=C(c2ccco2)OC1=O	0.82 °C
COc1ccc2nc(NC(=O)c3ccc(C)o3)sc2c1	0.04 °C
Cc1cccc(Nc2nc3ccc(C)cc3n3cnnc23)c1	0.19 °C
O=C(Nc1ccc(Cl)cc1)Nc1ccccc1OC(F)F	0.25 °C
CCCN(CC1CC1)C(=O)c1cc(COc2ccc(OC)cc2Cl)on1	0.09 °C
CCc1ccc(NC(=O)COc2ccccc2F)cc1	0.24 °C
COc1ccc(-c2cc(C(F)(F)F)nc(NCc3cccs3)n2)cc1OC	0.11 °C
Cc1ccc2cccc(OCCCCOc3ccccc3I)c2n1	0.77 °C
O=C(CCSc1nc2sc3c(c2c(=O)[nH]1)CCCC3)Nc1ccccc1	0.02 °C
O/N=C/c1cc(Cl)ccc1OCc1ccc(F)cc1	0.34 °C
O=C(Nc1nc(-c2ccccc2)ns1)N1CCOc2ccc(Cl)cc2C1	0.23 °C
O=S(=O)(c1cccs1)N1CCC(CO)(Cc2ccc(Cl)cc2)CC1	0.18 °C
FC(F)(F)c1ccc(Cl)c(Nc2nnc(-c3ccncc3)s2)c1	0.77 °C
CCOc1ccccc1C1C(C#N)=C(N)Oc2cc(N(C)C)ccc21 (stereo unspecified)	0.29 °C
CCC(c1ccccc1)c1nnc(NC(=O)Nc2ccccc2F)s1 (stereo unspecified)	0.2 °C
Cc1ccc(NC(=O)N2CCC(Cc3ccccc3)CC2)cc1	0.07 °C
O=C(/C=C/c1ccc(F)cc1)Nc1ccncc1	0.57 °C
CCOc1ccc(NC(=O)Nc2cc(F)ccc2C)cc1	2.14 °C (active)
COc1ccccc1C(=O)NC(=S)Nc1ccc(NC(=O)C(C)C)cc1	0.11 °C
CCc1cc(-c2n[nH]c(C)c2Oc2ccc(F)cc2)c(O)cc1OC	0.02 °C
CCOc1ccc(NC(=O)Nc2cc(C)ccc2OC)cc1	0.34 °C
CCOc1ccc(C(=O)Nc2cc(C)ccn2)cc1[N+](=O)[O-]	0.43 °C
CCNS(=O)(=O)c1ccc(NC(=O)Nc2cc(C)ccc2OC)cc1	1.17 °C (active)
COc1ccc(C)cc1NC(=O)Nc1ccc(OC(F)F)c(Cl)c1	-0.79 °C (inactive)
O=C(CCCc1c[nH]c2ccccc12)NCCOc1ccc(Cl)cc1	-0.03 °C (inactive)
